biological target: Aspartate--tRNA(Asp/Asn) ligase (Mycobacterium tuberculosis (strain ATCC 25618 / H37Rv)) (UniProt P9WFW3); assay: Assay for Asp RNA synthetase-1 from Mycobacterium tuberculosis; format: functional; set-up: scale not given: in the data most compounds retested in dose-response had high values; conditions: 30 µM
Sequence (P9WFW3 whole entry): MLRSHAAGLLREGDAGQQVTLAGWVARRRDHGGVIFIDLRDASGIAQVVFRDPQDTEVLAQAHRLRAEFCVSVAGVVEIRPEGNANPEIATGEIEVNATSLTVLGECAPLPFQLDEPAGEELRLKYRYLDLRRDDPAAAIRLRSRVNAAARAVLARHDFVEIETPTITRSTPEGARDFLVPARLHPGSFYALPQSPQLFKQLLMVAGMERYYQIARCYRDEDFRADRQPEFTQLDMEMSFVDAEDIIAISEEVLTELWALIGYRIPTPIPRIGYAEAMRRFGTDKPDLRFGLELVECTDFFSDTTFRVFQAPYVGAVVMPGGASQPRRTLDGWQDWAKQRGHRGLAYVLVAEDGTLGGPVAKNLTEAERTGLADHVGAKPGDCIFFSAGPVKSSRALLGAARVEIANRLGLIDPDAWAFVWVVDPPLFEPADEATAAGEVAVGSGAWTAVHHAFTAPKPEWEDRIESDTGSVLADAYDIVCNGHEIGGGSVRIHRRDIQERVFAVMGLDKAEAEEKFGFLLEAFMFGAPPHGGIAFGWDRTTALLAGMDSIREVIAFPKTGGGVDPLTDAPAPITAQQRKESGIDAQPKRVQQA
RESULT_TYPE: Percent Effect (%)
I only need the number, in %, no unit after it.

Previously resolved entries follow.
Query: Param item = Clc1ccccc1-c1nc(CNCCn2cccn2)cs1 ; retrieve measured Percent Effect.
Result: -1.68

Query: Report Percent Effect for c1cnc2c(C3CCN(Cc4ccsc4)CC3)n[nH]c2n1 please.
Result: -1.29

Query: Please give the measured Percent Effect for this compound: O=C(COc1cccc(Br)c1)N1CCOCC1c1ncon1 (centres undefined)
Result: -0.929

Query: Give its Percent Effect value. Item: COc1cc2nc(C)n(CC(=O)O)c(=O)c2cc1OC
Result: 1.68

Query: Consider the compound shown here: CC(C)n1ccnc1CN1CCCN(C(=O)c2cc(Cl)c[nH]2)CC1 What is its recorded Percent Effect?
Result: 3.35

Query: Name the recorded Percent Effect for Cc1nsc(NC(=O)N2CCC(C(C)(C)O)CC2)n1 .
Result: 0.0141

Query: Looking for the measured Percent Effect of CC(C)c1cc(N2CCC(CCC(=O)NC3CC3)CC2)n2nccc2n1 , can you help?
Result: 0.32

Query: What value of Percent Effect has been recorded for this entry: CNC(=O)C1CCN(C(=O)c2ccn(-c3ccc(F)cc3)n2)CC1
Result: 3.5

Query: So what's the measured Percent Effect for this one? O=C(NCCc1coc(-c2ccc(F)cc2)n1)NC1CCC(O)CC1 (centres undefined)
Result: -3.81

Query: Returns the measured Percent Effect for the input compound. Input: Cc1cnn(CC2CCCCN2Cc2cc(C)on2)c1 (centres undefined)
Result: -5.5

Continuing:
Query: Return reported Percent Effect; argument: O=C(c1cccc2cccnc12)N1CCCN(c2cccnn2)CC1
Result: -6.72

Query: Item Cc1ccccc1N1CCN(C(=O)c2ccc[nH]2)C(C)C1 (centres undefined) has what recorded Percent Effect?
Result: -2.33

Data provenance is ChEMBL document CHEMBL3988442.
